Numbers sourced from patent US20240309103A1.

biological target: T1, hNPR1-mFc:hBNP complex (human, UniProt P16860 103-134); assay: SPR, mAb captured, 37C
T1 construct: also called human NPR1 complexed to BNP
In this section we review reported koff values for a set of binders.
Quick reminder: number only, in s⁻¹, skip the unit.

// solved cases for koff follow
binder	koff / s⁻¹
mAb25502 (antibody, human IgG4, V domains shown) VH: QLQLQESGPGLVKPSETLSLTCTVSGGSISSSSYYWGWIRQPPGKGLEWIGSIYYSGSPYYIPSLKSRVTISVDTSKNQFSLKLSSVTAADTAMYYCARQGRGIARAGPFDYWGQGTLVTVSS VL: DIQMTQSPSSLSASVGDRVTITCRASQGISNYLAWYQEKPGKVPKLLIYAASTLQSGVPSRFSGSGSGTDFTLTITSLQSEDVATYYCQKYNSAPPWTFGQGTKVEIK	0.000472
mAb22805 (antibody, human IgG4, V domains shown) VH: QVQLVESGGGVVQPGRSLRLSCAASGFTFSTYGMHWVRQAPGKGLEWVALIWNDGSNKYYADSVKGRFTISRDNSKNTLDLQMNSLRAEDTAVYYCARLNTRITGTTNLDYWGQGTLVTVSS VL: DIQMTQSPSSLSASVGDRVTVSCRASQSIANYLNWYQQKPGKAPNLLIYGAYTLQSGVPSRFRGSGSGTDFTLTISSLQPEDFATYYCQQTYSTPPITFGQGTRLEIK	0.000313

Next item in the queue.
Query :: Respond only with koff recorded for mAb22809 (antibody, human IgG4, V domains shown) VH: QLQLRESGPGLVKPSETLSLTCTVSGGSINDNSFFWDWIRQTPGRGLEWIGNIFFDGNTYYTPSLKSRVIISVDMSQNQFSLRLTSVTAADTALYYCARHKRSMTAWGFFDYWGQGTLVTVSS VL: DIQMTQSPSSLSASVGDRVTITCRASKRINTYLNWYQQKPGKAPKVLIYSASNLQSGVPSRFSGSGSGTDFTLTINSLQPEDFATYFCQQSFSAPPITFGQGTRLEIK
Result :: 0.000166
